Some binders, each annotated with its measured pKd.
SYSTEM: T1, 383 amino acid recombinant tau (UniProt P10636-6 1-383, biotinylated where printed as biotin-rTau383 (position not given))
T1 construct: also called rTau383
T1 sequence (P10636 other isoform, or with tags, fused parts or gaps limits assumed): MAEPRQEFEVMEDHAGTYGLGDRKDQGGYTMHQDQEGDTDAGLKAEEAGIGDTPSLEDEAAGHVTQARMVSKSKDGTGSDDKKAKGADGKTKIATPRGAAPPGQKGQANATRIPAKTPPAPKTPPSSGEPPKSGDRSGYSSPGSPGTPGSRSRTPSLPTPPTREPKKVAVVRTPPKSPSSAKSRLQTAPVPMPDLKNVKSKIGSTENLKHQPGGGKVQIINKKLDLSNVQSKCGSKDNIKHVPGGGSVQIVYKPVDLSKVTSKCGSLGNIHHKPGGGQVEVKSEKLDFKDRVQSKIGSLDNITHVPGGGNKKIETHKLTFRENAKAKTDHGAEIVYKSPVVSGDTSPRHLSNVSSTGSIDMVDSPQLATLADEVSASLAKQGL
ASSAY_REMARKS: Octet
pKd: −log10 of the molar value.
QUANTITY_NAME: pKd

BINDER	QUANTITY_NAME	MEAS_VALUE
VH1/Vk4 (antibody, V domains shown, member of the group m7; also called humanized IPN002 variant VH1/Vk4) VH: EVHLVESGGALVKPGGSLRLSCAASGFSFSKYGMSWVRQAPGKGLEWVATISSSGSRTYYPDSVKGRFTISRDNAKNTLYLQMSSLKSEDTAMYYCSISWDGAMDYWGQGTSVTVSS VL: DVVMTQSPLSLPVTLGQPASISCKSSQSIVHSNGNTYLEWYLQKPGQSPQLLIYKVSNRFSGVPDRFSGSGSGTDFTLKISRVEAEDVGVYYCFQGSLVPWAFGGGTKVEIK	pKd	9.24
VH4/Vk2 (antibody, V domains shown, member of the group m7; also called humanized IPN002 variant VH4/Vk2) VH: EVQLVESGGALVKPGGSLRLSCAASGFSFSKYGMSWVRQAPGKGLEWVATISSSGSRTYYPDSVKGRFTISRDNAKNTLYLQMNSLRAEDTAMYYCAISWDGAMDYWGQGTTVTVSS VL: DVVMTQSPLSLPVTLGQPASISCKSSQSIVHSNGNTYLEWYLQKPGQSPQLLVYKVSNRFSGVPDRFSGSGSGTDFTLKISRVEAEDVGTYYCFQGSLVPWAFGGGTKVEIK	pKd	8.73
VH3/Vk1 (antibody, V domains shown, member of the group m7; also called humanized IPN002 variant VH3/Vk1) VH: EVQLVESGGALVKPGGSLRLSCAASGFSFSKYGMSWVRQAPGKGLEWVATISSSGSRTYYPDSVKGRFTISRDNAKNTLYLQMNSLRAEDTAMYYCSISWDGAMDYWGQGTTVTVSS VL: DVLMTQSPLSLPVTLGQPASISCKSSQSIVHSNGNTYLEWYLQKPGQSPQLLVYKVSNRFSGVPDRFSGSGSGTDFTLKISRVEAEDVGTYYCFQGSLVPWAFGGGTKVEIK	pKd	8.70

Data origin: patent US20160122421A1
